The measurements presented in this section are drawn from the nanobody polyreactivity screen of Harvey et al. (2022).

experimental.details: yeast display, Sf9 membrane polyspecificity reagent, FACS + sequencing; frameworks hold sequencing errors
outcome.measure: polyreactivity (PSR sort gate)

Use these answered entries as a reference point.
| seq | polyreactivity (PSR sort gate) |
| --- | --- |
| QVQLVESGGGLVQAGGSLRLSCAASGSIFGANAMGWYRKAPGKERELVAAISTRGGRTYYADSVKGRFTISRDNAKNTVYLQMNSLKPEDTAVYYCATSGGRPYKYEYWGQGTQVTVSS | high polyreactivity |
| QVQLVESGGGLVQAGGSLRLSCAASGLIFSWYAMGWYRQAPGKERELVAAISSGSSTNYADSVKGRFTISRDNAKNTVYLQRNSLKPEDTAVYYCAARIYYTSRLRMYYWGQGTQVTVSS | high polyreactivity |
| QVQLVESGGGLVQAGGSLRLSCAASGRFFSWNAMGWYRPAPGTERELVAAISSSVGSTYYADSVKGRFTISRDNAQNTVYFQMNSRKPEDTAVYYCNAVPIGQWAYDYWGQGTQVTVSS | high polyreactivity |
| QVQLVESGGGLVQAGGSLRLSCAASGIIFYIYAMGWYRQAPGKETELVASISFSGTSTYYADSVKGRFTISRDNAKNTVYLQLHSLKPEDTAVYYCNAQTNRPWGWPIGYDYWGQGTQVTVSS | low polyreactivity |
| QVQLVESGGGLVQAGGSLRLSCASSGFNFVYYSMGRYRQAPGKEREFVAAITERGGSTDYADSVKGRFTISRDHAKNTVYFQMNSLKPEDTAVYYCIARDVTLWDDVYQQDGSGYWGQGTQVTVSS | low polyreactivity |

Q: Consider the sequence "QVQLVESGGGLVQEGGRLRISCAATGINFSWYAMGWNRPATGKERELVASITIGGNTNFADSVKGRFTISLYNAKNSVYLQMNSLKREDTAVYYCAAQTFWYGYGGGVYWGQGTQVTVSS" and give its measured polyreactivity (PSR sort gate).
A: low polyreactivity

Q: Consider the sequence "QVQLEESGGGLVQAGGSLRLSCAATGSTIPYYAMGWYRQAPGKERELVARITSGDRTFYADSVKGRFTISRDNAKNTVYLQMNSLKPEDTAVYFCNAQVHYYSWYGYWGQGTQVTVSS" and give its measured polyreactivity (PSR sort gate).
A: high polyreactivity

Q: Consider the sequence "QVQLVESGGGLVQAGGSLRLSCDPSGRIFNRYAMGWYRQAPGKERELVAAITSGGDTNYADSVKGRFTISRDNAKNTVYLQMNSLKQEDTAVYYCNARSRGRASGYDYWGQGTQVTVSS" and give its measured polyreactivity (PSR sort gate).
A: high polyreactivity

----------
experimental.details: yeast display, Sf9 membrane polyspecificity reagent, FACS + sequencing; frameworks hold sequencing errors

| seq | polyreactivity (PSR sort gate) |
| --- | --- |
| QVQHVESGGGLVQAGGSLRLSCAASGSIFNRYAMGWYRQAPGKERELVAAITYNGGSTYYADSVKGRFTISRDNAKNTVYLQMNSLKPEDTAVYYCAAERYNGYDYWGQGTQVTVSS | high polyreactivity |
| QVQLVESGGGLVQAGGSLRLSCAASGITYTSYAMGWYRQAPGKERELVAAISSSGGSTYYADSVKGRFTISRDNAKNTVYLQMNSLKPEDTAVYYCIARPRSRSPRVEYDYWGQGTQVTVSS | high polyreactivity |
| QVQLVESGGGLVQAGGSLRLSCAASGSIFYPYAMGWYRQAPGKERELVARISSAGGTYYADSVKGRFTISRDNAKNTVYLQMNSLKPEDTAVYYCAAQARYRYYYWGQGTQVTVSS | high polyreactivity |
